Molecular target: T1, human TIM-3 protein with hFc tag (hTIM-3-hFc protein) (human, UniProt Q8TDQ0 22-200)
T1 construct: also called immunogen 1; human TIM-3 extracellular domain protein; not shown: human IgG Fc fragment (hFc) of the pCpC vector
T1 sequence: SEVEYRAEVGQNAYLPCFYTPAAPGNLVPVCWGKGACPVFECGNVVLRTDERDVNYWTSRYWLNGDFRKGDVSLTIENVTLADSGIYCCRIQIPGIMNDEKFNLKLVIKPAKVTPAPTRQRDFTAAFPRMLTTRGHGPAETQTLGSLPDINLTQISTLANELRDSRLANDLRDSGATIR
Test: ELISA, coated hTIM-3-hFc; antibody 0.0667 nM
Entries and their OD450 values follow.
Answer with a bare number; do not write a unit.

Some solved entries appear below for comparison.
| BINDER | NUMBER |
| --- | --- |
| 39E5H1 (TIM-3 antibody purified from hybridoma, chimeric antibody of Example 2) (antibody, V domains shown, From hybridoma of Harbour H2L2 transgenic mice: human variable regions, rat constant regions) VH: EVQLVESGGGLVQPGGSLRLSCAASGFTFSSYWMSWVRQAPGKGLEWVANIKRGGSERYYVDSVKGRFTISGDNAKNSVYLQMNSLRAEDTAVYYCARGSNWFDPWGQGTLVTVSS VL: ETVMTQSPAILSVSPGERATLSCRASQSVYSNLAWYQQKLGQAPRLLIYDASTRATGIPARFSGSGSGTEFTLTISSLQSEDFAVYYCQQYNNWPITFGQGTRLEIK | 1.78 |
| 18D2H2 (TIM-3 antibody purified from hybridoma, chimeric antibody of Example 2) (antibody, V domains shown, From hybridoma of Harbour H2L2 transgenic mice: human variable regions, rat constant regions) VH: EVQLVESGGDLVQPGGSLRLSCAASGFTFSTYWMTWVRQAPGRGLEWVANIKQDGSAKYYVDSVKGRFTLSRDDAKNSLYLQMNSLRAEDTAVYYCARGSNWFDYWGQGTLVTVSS VL: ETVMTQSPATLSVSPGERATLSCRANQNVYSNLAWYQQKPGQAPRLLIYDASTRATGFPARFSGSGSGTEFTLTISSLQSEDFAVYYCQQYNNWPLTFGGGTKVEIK | 0.35 |
| 57F4E5 (TIM-3 antibody purified from hybridoma, chimeric antibody of Example 2) (antibody, V domains shown, From hybridoma of Harbour H2L2 transgenic mice: human variable regions, rat constant regions) VH: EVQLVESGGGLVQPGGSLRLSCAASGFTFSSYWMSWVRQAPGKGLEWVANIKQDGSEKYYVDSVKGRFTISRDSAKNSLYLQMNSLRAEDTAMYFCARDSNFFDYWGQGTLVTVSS VL: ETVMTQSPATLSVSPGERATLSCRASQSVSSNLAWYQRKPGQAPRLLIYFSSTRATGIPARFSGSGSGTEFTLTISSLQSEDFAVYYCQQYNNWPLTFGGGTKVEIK | 2.83 |
| 34B6D8 (TIM-3 antibody purified from hybridoma, chimeric antibody of Example 2) (antibody, V domains shown, From hybridoma of Harbour H2L2 transgenic mice: human variable regions, rat constant regions) VH: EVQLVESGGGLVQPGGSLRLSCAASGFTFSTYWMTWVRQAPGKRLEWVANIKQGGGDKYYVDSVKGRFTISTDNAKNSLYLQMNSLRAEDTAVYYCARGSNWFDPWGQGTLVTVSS VL: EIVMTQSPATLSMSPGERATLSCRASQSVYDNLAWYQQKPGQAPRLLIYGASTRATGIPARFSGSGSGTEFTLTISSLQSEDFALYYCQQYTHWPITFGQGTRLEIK | 1.62 |
| 7A4F10 (TIM-3 antibody purified from hybridoma, chimeric antibody of Example 2) (antibody, V domains shown, From hybridoma of Harbour H2L2 transgenic mice: human variable regions, rat constant regions) VH: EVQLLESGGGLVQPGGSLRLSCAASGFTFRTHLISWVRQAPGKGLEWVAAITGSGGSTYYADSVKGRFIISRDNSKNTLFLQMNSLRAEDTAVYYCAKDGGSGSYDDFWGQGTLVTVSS VL: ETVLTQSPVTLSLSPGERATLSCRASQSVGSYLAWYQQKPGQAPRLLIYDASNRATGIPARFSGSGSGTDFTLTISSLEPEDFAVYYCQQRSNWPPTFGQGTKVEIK | 0.21 |

[in] Item under review: 134H3G6 (TIM-3 antibody purified from hybridoma, chimeric antibody of Example 2) (antibody, V domains shown, From hybridoma of Harbour H2L2 transgenic mice: human variable regions, rat constant regions) VH: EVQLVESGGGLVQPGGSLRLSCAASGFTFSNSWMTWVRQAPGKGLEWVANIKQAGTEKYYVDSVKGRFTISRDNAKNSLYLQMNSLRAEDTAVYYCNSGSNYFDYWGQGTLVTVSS VL: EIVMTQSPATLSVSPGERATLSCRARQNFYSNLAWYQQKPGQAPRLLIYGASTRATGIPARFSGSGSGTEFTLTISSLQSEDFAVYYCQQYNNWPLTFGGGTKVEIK . Reported OD450?
[out] 0.2
